All values here come from PubChem BioAssay (NCI).

- System: ACHN renal
- test: NCI tumour cell line growth inhibition, 48 h
Answer each item with its documented TGI.
Give bare numbers, in µM.

Solved cases (2 shown):
| compoundSmiles | assayEndpoint | reportedResult |
| --- | --- | --- |
| COc1cc2c(cc1O)CCN(C)[C@H]2Cc1ccc(Oc2c(O)c(OC)cc3c2C[C@H]2c4c(c(OC)c(OC)c(OC)c4-3)CCN2C)cc1 | TGI | 10.7 |
| CC(C)(CN1CCCCC1)C(/C=C/c1ccccc1)=N\NC(=O)N/N=C(/C=C/c1ccccc1)C(C)(C)CN1CCCCC1 | TGI | 11.9 |

Consider the record given below.
query: Any idea what TGI came out for C[C@]12CC[C@@H](OC(=O)N(CCCl)N=O)C[C@@H]1CC[C@@H]1[C@@H]2CC[C@]2(C)C(=O)CC[C@@H]12 on ACHN renal?
result: 13.8

====

- System: SNB-75 CNS
- test: NCI tumour cell line growth inhibition, 48 h
assayEndpoint: TGI (µM)
One number for each entry, in µM.

Solved cases (4 shown):
| molecule | TGI / µM |
| --- | --- |
| CC12CC=CCC1CCC1C2CCC2(C)C(c3ccc(=O)oc3)CCC12O (stereo not given) | 0.302 |
| COc1cccc(NC(=O)CC(=O)N2N=C(C)C(N=Nc3ccc(C(=O)O)cc3)C2=O)c1 (stereo not given) | 45.1 |
| COc1ccc(NC(=O)n2nc(/C=C\c3ccc(O)c(OC)c3)cc2/C=C\c2ccc(O)c(OC)c2)cc1 | 16.3 |
| CNCCNc1nc2ccccc2c2c(=O)c3cc(OC)ccc3sc12 | 2.58 |

Consider the record given below.
query: // lookup TGI for C=CCCCCn1c2ccccc2c2c(C)c3cnccc3c(C)c21
result: 53.7

====

- System: RPMI-8226 leukemia
- test: NCI tumour cell line growth inhibition, 48 h; in the data active = GI50 below about 0.43 µM; inactive = the rest
// classify into YES = active, NO = inactive

| compoundSmiles | classAssignment |
| --- | --- |
| CCCCCCNC(=O)n1cc(F)c(=O)[nH]c1=O | NO |
| COC(=O)c1ccc2c(c1)C(=O)c1c-2n(CCCN)c(=O)c2cc(OC)c(OC)cc12 | NO |
| COc1ccc(/C=C\c2cc(OC)c(OC)c(OC)c2)c(NS(=O)(=O)c2ccc(Cl)cc2)c1O | YES |
| CC1(C)[C@@H](OC(N)=O)C=C[C@]2(CO)[C@H]3CC[C@]4(C)[C@@H](c5ccc(=O)oc5)[C@@H](Cl)C[C@]4(O)C3=CC[C@@H]12 | YES |

We next turn to a different molecule, shown below.
query: Which outcome was assigned to COc1cc2c3c(ncc2c(OC)c1OC)-c1cc2c(cc1C3)OCO2 in this test?
result: NO

====

Answer each item with its documented log10 of TGI.
- Test system: SF-295 CNS
- test: NCI tumour cell line growth inhibition, 48 h
Base-10 log of TGI, unit µM.

Solved cases (3 shown):
| molecule | log10 of TGI |
| --- | --- |
| CC12CC=CCC1CCC1C2CCC2(C)C(c3ccc(=O)oc3)CCC12O (centres undefined) | -0.60 |
| COc1ccc([C@@H](O)c2cc(-c3ncnc4cc(N5CCOCC5)ccc34)c(F)cc2Cl)nn1 | 1.41 |
| COC(=O)c1ccc2c(c1)C(=O)c1c-2n(CCCN)c(=O)c2cc(OC)c(OC)cc12 | 1.57 |

Required: log10 of TGI, one value per molecule below.
1. COc1cc(/C=C2\CC3C4CC=C5C[C@@H](O)CC[C@]5(C)C4CC[C@]3(C)C2=O)ccc1OCCCn1ccnc1 (some centres undefined)
2. Nn1c(Sc2nc3ccccc3c(=O)n2N)nc2ccccc2c1=O
3. COc1cc(/C=C2\CN(C(=O)CCN3CCC(=NO)CC3)C/C(=C\c3cc(OC)c(OC)c(OC)c3)C2=O)cc(OC)c1OC
4. COC(=O)/C=C1\C(=O)C=C2[C@@H]3C[C@H]4C[C@H](CC[C@@]4(C)N21)C3(C)NC(C)=O (some centres undefined)
5. Clc1ccc2c(c1)C(N1CCNCC1)=Nc1ccccc1O2

result:
[1.44, 1.62, 0.22, 1.64, 0.58]

====

Answer each item with its documented TGI.
- Tested on: DU-145 prostate
- test: NCI tumour cell line growth inhibition, 48 h
Numbers only, in µM.

| compound | TGI, µM |
| --- | --- |
| C[C@]12CC[C@H]3[C@@H](CC[C@]4(O)C[C@@H](O)CC[C@]34CO)[C@@]1(O)CC[C@@H]2C1=CC(=O)OC1 | 2.24 |
| O=c1[nH]c2cc([N+](=O)[O-])c(Nc3c4ccccc4nc4ccccc34)c([N+](=O)[O-])c2[nH]1 | 8.82 |
| COc1cc2cc(C(=O)N3CC(CCl)c4c3cc(NC(=O)C(C)Nc3c([N+](=O)[O-])cc(C(=O)NCCN(C)C)cc3[N+](=O)[O-])c3ccccc43)[nH]c2c(OC)c1OC (stereo not drawn) | 1.03 |
| CCCCCCCCCCCCCCCCCCNC(=O)OCC(CNS(=O)(=O)CCC[n+]1cccc2ccccc21)COC (stereo not drawn) | 34.3 |

query: // lookup TGI for CNCCNc1nc2ccccc2c2c(=O)c3cc(F)ccc3sc12
result: 3.15

====

- System: HCT-116 colon
- test: NCI tumour cell line growth inhibition, 48 h; in the data active = GI50 below about 0.43 µM; inactive = the rest
// classify into active, inactive

Record excerpt, results attached:
| compound | classAssignment |
| --- | --- |
| CCCCN(CCCC)CCc1c(C)cc(C)c(CCN(CCCC)CCCC)c1O | inactive |
| CC[C@]1(O)C[C@@H]2CN(CCc3c([nH]c4ccccc34)[C@@](C(=O)OC)(c3cc4c(cc3OC)N(C)[C@H]3[C@@](O)(C(N)=O)[C@H](O)[C@]5(CC)[C@@H]6C[C@@H]6CN6CC[C@]43[C@@H]65)C2)C1 | active |
| CC12CC=CCC1CCC1C2CCC2(C)C(c3ccc(=O)oc3)CCC12O (centres undefined) | active |
| COc1cc2c3c(ncc2c(OC)c1OC)-c1cc2c(cc1C3)OCO2 | inactive |
| Cn1cc(C2=C(c3cn(C)c4cc(N)ccc34)C(=O)NC2=O)c2ccccc21 | inactive |
| CNCCNc1nc2ccccc2c2c(=O)c3cc(F)ccc3sc12 | inactive |

query: Which outcome was assigned to CSc1nsc(S/C=C\C(=O)c2ccc(C)cc2)n1 in this test?
result: inactive

query: Which outcome was assigned to COC(=O)c1cc(-c2ccc(OC)cc2)[nH]c1N/N=C/c1c(Cl)cccc1Cl in this test?
result: active

query: Which outcome was assigned to CC[C@H](Nc1nc(N)nc(C2CC2)c1C#N)c1nc2cccc(NCc3ccc(C(=O)NO)cc3)c2c(=O)n1-c1ccccc1 in this test?
result: inactive

====

- System: SF-268 CNS
- test: NCI tumour cell line growth inhibition, 48 h; in the data active = GI50 below about 0.43 µM; inactive = the rest
// classify into active, inactive

Record excerpt, results attached:
| compound | classAssignment |
| --- | --- |
| COC(=O)c1ccc2c(c1)C(=O)c1c-2n(CCCN)c(=O)c2cc(OC)c(OC)cc12 | inactive |
| COc1cc(/C=C2\CN(C(=O)CCN3CCC(=NO)CC3)C/C(=C\c3cc(OC)c(OC)c(OC)c3)C2=O)cc(OC)c1OC | inactive |
| CCC[CH2][Sn]1([CH2]CCC)[O]C(=O)c2ccc(N)cc2[O]1 | active |
| CCCCN(CC)c1ncnc2ccc(Br)cc12 | inactive |

query: Which outcome was assigned to COc1nc(C)cc2c(=O)n(-c3ccccc3)n(CC(O)CN3CCN(c4ccc(Cl)cc4)CC3)c(=O)c12 (configuration not stated) in this test?
result: inactive

query: Which outcome was assigned to O=C(Nc1ccc(Br)cc1)Nc1nn(C(=O)Nc2ccc(Br)cc2)c2ccccc12 in this test?
result: inactive

====

- Test system: HCT-15 colon
- test: NCI tumour cell line growth inhibition, 48 h
Answer each item with its documented TGI.
One number for each entry, in µM.

Solved cases (4 shown):
| compound | TGI [µM] |
| --- | --- |
| COC(=O)/C=c1/c2ccccc2n2c1c1ccccc1[n+]2C | 33.1 |
| CCCCCCCCCCCCCCCCCCNC(=O)OCC(CNS(=O)(=O)CCC[n+]1cccc2ccccc21)COC (stereo not given) | 59.2 |
| Cc1c(C(=O)CC(=O)C(=O)Nc2cc(Cl)ccc2Cl)[n+](=O)c2ccccc2n1[O-] | 90.2 |
| C[C@]12CC[C@@H](OC(=O)N(CCCl)N=O)C[C@@H]1CC[C@@H]1[C@@H]2CC[C@]2(C)C(=O)CC[C@@H]12 | 32.4 |

query: Any idea what TGI came out for CC(C)(Cc1ccccc1)N1C(=O)N1C(C)(C)Cc1ccccc1 on HCT-15 colon?
result: 68.2

====

- Test system: OVCAR-5 ovarian
- test: NCI tumour cell line growth inhibition, 48 h
assayEndpoint: TGI

| molecule | reportedResult |
| --- | --- |
| COC(=O)[C@@H]1C=C[C@H](NC(C)=O)C1 | > 100 µM |

Required: TGI, one value per molecule below.
1. COC(=O)/C=C1\C(=O)C=C2[C@@H]3C[C@H]4C[C@H](CC[C@@]4(C)N21)C3(C)NC(C)=O (stereo partly drawn)
2. Nn1c(Sc2nc3ccccc3c(=O)n2N)nc2ccccc2c1=O
3. CNCCNc1nc2ccccc2c2c(=O)c3cc(OC)ccc3sc12
4. Cc1cc2nc(-c3c(N)ncc(C#N)c3-c3ccc(Cl)cc3)[nH]c2cc1C
5. Cn1ccc2c(c1=O)C(=O)OC2(C)C

result:
1. 35.7 µM
2. 40.6 µM
3. 3.27 µM
4. > 100 µM
5. > 100 µM

Required: TGI, one value per molecule below.
1. Cc1cn(CCOCCOC(=O)NC(CCCNC(N)=O)C(=O)O)c(=O)[nH]c1=O (stereo not drawn)
2. COc1ccc(C2SCC(=O)N2NC(=O)C(C)Oc2ccc(Cl)cc2Cl)cc1 (stereo not drawn)
3. Cc1cc(=O)oc2cc(OC(=O)N(CCCl)CCCl)ccc12
4. [N-]=[N+]=CC(=O)COC(=O)c1ccccc1
5. CC1(O)CCC2(C)C(=O)C1(C)CCC21OCCO1 (stereo not drawn)
6. C=CCOC1(CC=C)C(=O)OC2C(O)COC21O (stereo not drawn)

result:
> 100 µM
> 100 µM
> 100 µM
> 100 µM
> 100 µM
> 100 µM

Required: TGI, one value per molecule below.
1. COc1ccc(/C=C\c2cc(OC)c(OC)c(OC)c2)c(NS(=O)(=O)c2ccc(Cl)cc2)c1O
2. CCCCN(CC)c1ncnc2ccc(Br)cc12
3. CC(C)(C)C(=O)N1CCN(C=O)C1=S
4. C/C(=N/NC(=S)N1CCN(C(=S)N/N=C(/C)c2ccccn2)CC1)c1ccccn1
5. CN(C)CCCc1c2ccccc2nc2ccc(Cl)cc12

result:
1: 33.8 µM; 2: 49.8 µM; 3: > 100 µM; 4: > 100 µM; 5: 33.3 µM

Required: TGI, one value per molecule below.
1. O=P(O)(O)C=C=C1CCCCC1
2. COc1cc(C)cc2c(-c3c(O)cc(O)c4c3C[C@H](C)N[C@H]4C)cc(-c3cc(-c4c(O)cc(O)c5c4C[C@H](C)N[C@H]5C)c4cc(C)cc(OC)c4c3O)c(O)c12
3. CCOC(=O)Cc1csc(N=Nc2c(O)[nH]c3ccccc23)n1
4. Cn1c(=O)n(CC2CS2)c2ccccc21 (stereo not drawn)

result:
1: > 100 µM; 2: > 100 µM; 3: > 100 µM; 4: > 100 µM

Required: TGI, one value per molecule below.
1. S=P(N1CCCC1)(N1CC1)N1CC1
2. NC1c2c(Cl)sc(Cl)c2C(=O)C1O (stereo not drawn)

result:
> 100 µM
> 100 µM
